Molecular target: T1, ANTIBODY EXPRESSION CONTROL
T1 construct: also called mouse anti-canine antibody (capture reagent of the expression control ELISA)
Assay: SPR Biacore, expression control
kon values for the binders below.
Provide only the numeric value, understood in M⁻¹ s⁻¹.

Examples with answers:
| Binder | Result |
| --- | --- |
| Mu_02D09_VL (SEQ ID NO: 33)_I29A (antibody, V domains shown) VH: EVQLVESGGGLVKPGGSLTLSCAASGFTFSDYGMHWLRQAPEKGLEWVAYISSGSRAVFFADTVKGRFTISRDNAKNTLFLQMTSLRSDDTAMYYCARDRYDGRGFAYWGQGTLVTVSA VL: DIVLTQSPATLSVTPGDSVSLSCRASQSASNNLHWYQQTSHESPRLLITYASQSISGIPSRFSGSGSGTDFTLSINSVETEDFGMYFCQQSNSWPLTFGAGTKLELKR | 133000 |
| Mu_09E09_VH (SEQ ID NO: 35)_Y59A (antibody, V domains shown) VH: DVKLVESGEGLVKPGGSLKLSCAASGFTFSSYAMSWVRQTPEKRLEWVAYISSGGDYIAYADTVKGRFTISRDNARNTLYLQMSSLKSEDTAMYYCTRDPITGTFAYWGQGTLVTVSA VL: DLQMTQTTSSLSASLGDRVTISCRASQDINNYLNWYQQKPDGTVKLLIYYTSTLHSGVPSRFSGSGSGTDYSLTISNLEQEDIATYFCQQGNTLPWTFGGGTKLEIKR | 307000 |

Q: Hello, please tell me recorded kon for this one: Mu_09E09_VL (SEQ ID NO: 37)_G91A (antibody, V domains shown) VH: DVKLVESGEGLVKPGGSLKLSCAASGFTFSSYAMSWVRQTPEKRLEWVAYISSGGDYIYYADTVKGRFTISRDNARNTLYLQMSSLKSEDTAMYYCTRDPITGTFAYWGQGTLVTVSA VL: DLQMTQTTSSLSASLGDRVTISCRASQDINNYLNWYQQKPDGTVKLLIYYTSTLHSGVPSRFSGSGSGTDYSLTISNLEQEDIATYFCQQANTLPWTFGGGTKLEIKR
Ans: 292000
